Ki reference
# TARGET OR SYSTEM: HTRA2 (Homo sapiens)
# Sequence (O43464 134-458): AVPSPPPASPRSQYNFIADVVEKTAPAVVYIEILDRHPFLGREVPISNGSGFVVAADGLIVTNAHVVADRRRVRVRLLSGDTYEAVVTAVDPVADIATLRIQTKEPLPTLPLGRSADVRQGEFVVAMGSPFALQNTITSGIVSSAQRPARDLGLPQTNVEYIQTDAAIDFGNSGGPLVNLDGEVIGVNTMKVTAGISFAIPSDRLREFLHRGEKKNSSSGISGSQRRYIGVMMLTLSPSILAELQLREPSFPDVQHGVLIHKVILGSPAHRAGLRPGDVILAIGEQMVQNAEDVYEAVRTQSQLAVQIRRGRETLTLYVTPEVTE
# METHOD NOTES: Chromogenic enzyme activity assay, HTRA2

COMPOUND	Ki
CC(C)C[C@H]1C(=O)N(C)[C@@H](Cc2ccccc2)C(=O)N[C@@H](C(C)C)C(=O)O[C@H](C)[C@H](NC(=O)[C@H](C)NC(=O)[C@H](C)NC(=O)OCc2ccccc2)C(=O)N[C@@H](Cc2ccccc2)C(=O)N[C@H]2CC[C@@H](O)N1C2=O [Ahp2]	> 50000 nM

Ask | Entry CC[C@@H]1NC(=O)[C@@H](NC(=O)[C@H](C)NC(=O)[C@H](C)NC(=O)OCc2ccccc2)[C@@H](C)OC(=O)[C@H](C(C)C)NC(=O)[C@H](Cc2ccccc2)N(C)C(=O)[C@H](CC(C)C)N2C(=O)[C@H](CC[C@H]2O)NC1=O [Ahp14] : reported Ki = ?
Reply | 700 nM

* * *

# TARGET OR SYSTEM: HTRA3 (Homo sapiens)
# Sequence (P83110 111-436): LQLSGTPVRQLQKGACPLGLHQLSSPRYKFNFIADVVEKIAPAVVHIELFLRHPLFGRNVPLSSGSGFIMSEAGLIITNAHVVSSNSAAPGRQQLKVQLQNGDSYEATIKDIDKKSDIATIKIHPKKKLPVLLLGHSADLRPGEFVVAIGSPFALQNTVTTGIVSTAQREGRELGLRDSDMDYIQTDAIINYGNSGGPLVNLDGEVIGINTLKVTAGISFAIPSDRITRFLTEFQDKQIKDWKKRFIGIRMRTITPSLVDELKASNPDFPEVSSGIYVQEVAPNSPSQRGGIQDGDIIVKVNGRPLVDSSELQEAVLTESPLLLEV
# METHOD NOTES: Chromogenic enzyme activity assay, HTRA3
MEASUREMENT KIND: Ki (µM)
Write down the numeric answer in µM and omit the unit.

COMPOUND	Ki, µM
CC(C)C[C@H]1C(=O)N(C)[C@@H](Cc2ccccc2)C(=O)N[C@@H](C(C)C)C(=O)O[C@H](C)[C@H](NC(=O)[C@H](C)NC(=O)[C@H](C)NC(=O)OCc2ccccc2)C(=O)N[C@@H](C(C)C)C(=O)N[C@H]2CC[C@@H](O)N1C2=O [Ahp1]	3

Ask | May I ask what Ki has been recorded for C=CC[C@@H]1NC(=O)[C@@H](NC(=O)[C@H](C)NC(=O)[C@H](C)NC(=O)OCc2ccccc2)[C@@H](C)OC(=O)[C@H](C(C)C)NC(=O)[C@H](Cc2ccccc2)N(C)C(=O)[C@H](CC(C)C)N2C(=O)[C@H](CC[C@H]2O)NC1=O [Ahp17] ?
Reply | 0.84

* * *

# TARGET OR SYSTEM: human neutrophil elastase (Homo sapiens, UniProt P08246)
# Construct: purchased Enzo Life Sciences BML-SE284
# Sequence (P08246 30-267): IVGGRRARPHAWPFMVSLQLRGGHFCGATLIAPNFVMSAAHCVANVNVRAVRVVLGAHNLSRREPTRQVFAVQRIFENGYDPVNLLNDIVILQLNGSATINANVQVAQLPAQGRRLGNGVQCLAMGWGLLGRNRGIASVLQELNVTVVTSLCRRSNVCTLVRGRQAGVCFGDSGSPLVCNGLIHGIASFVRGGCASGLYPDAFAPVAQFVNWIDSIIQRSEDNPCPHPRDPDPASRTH
# METHOD NOTES: Chromogenic enzyme activity assay, elastase
# Format: biochemical
# CONDITION INFO: Table 2, substrate AAPV-pNA, read-out: Ki Elastase [b]
MEASUREMENT KIND: pKi
Please report pKi as the negative decimal logarithm of the molar concentration, giving only the number.

CC(C)C[C@H]1C(=O)N(C)[C@@H](Cc2ccccc2)C(=O)N[C@@H](C(C)C)C(=O)O[C@H](C)[C@H](NC(=O)[C@H](C)NC(=O)[C@H](C)NC(=O)OCc2ccccc2)C(=O)N[C@@H](C(C)C)C(=O)N[C@H]2CC[C@@H](O)N1C2=O 7.72
CC(C)C[C@H]1C(=O)N(C)[C@@H](C)C(=O)N[C@@H](C(C)C)C(=O)O[C@H](C)[C@H](NC(=O)[C@H](C)NC(=O)[C@H](C)NC(=O)OCc2ccccc2)C(=O)N[C@@H](C(C)C)C(=O)N[C@H]2CC[C@@H](O)N1C2=O 6.96

Ask | Using the record for CC(C)C[C@H]1C(=O)N(C)[C@@H](Cc2ccccc2)C(=O)N[C@@H](C(C)C)C(=O)O[C@H](C(C)C)[C@H](NC(=O)[C@H](C)NC(=O)[C@H](C)NC(=O)OCc2ccccc2)C(=O)N[C@@H](C(C)C)C(=O)N[C@H]2CC[C@@H](O)N1C2=O , report its pKi.
Reply | 7.74
